Reference for the values: paper PMC10343752

target: α-glucosidase from Saccharomyces cerevisiae (Saccharomyces cerevisiae)
Sequence (P53341 whole entry): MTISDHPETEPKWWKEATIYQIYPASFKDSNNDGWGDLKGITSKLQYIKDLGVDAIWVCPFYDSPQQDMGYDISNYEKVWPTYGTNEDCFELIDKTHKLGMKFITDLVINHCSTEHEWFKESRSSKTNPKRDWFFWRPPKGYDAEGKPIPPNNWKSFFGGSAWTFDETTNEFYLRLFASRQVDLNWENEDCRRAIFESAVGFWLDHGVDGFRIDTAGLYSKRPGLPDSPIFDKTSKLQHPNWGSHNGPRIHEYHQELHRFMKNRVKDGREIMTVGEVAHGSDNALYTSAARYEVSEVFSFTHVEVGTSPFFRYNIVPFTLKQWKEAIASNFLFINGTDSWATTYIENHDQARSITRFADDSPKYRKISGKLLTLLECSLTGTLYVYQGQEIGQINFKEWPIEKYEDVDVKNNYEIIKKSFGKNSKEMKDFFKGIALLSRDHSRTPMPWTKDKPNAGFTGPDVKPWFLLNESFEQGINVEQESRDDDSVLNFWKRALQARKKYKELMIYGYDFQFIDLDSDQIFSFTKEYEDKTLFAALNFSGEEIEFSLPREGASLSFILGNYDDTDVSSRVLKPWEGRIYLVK
pIC50: −log10 of the molar value.
Label condition met when pIC50 is at or above 5; otherwise label condition not met.

Example cases with answers are listed next.
{"columns": ["smiles entry", "target under test", "class label"],
 "data": [
  ["O=C1c2cc(Cl)ccc2-n2c1c(-c1ccccc1)c1ccccc1c2=O", "α-glucosidase from Saccharomyces cerevisiae (Saccharomyces cerevisiae)", "condition met"],
  ["CC(C)(C)c1ccc(-c2c3n(c(=O)c4ccccc24)-c2ccccc2C3=O)cc1", "α-glucosidase from Saccharomyces cerevisiae (Saccharomyces cerevisiae)", "condition met"]
]}

Proceed to the following item.
### Prompt Dear colleague, could you confirm whether "COC(=O)c1ccc(-c2c3n(c(=O)c4ccccc24)-c2ccccc2C3=O)cc1" has pIC50 at or above 5?
### Response condition not met
